measurement-type: melting point

Query block: Look up and state reported melting point for CC=C1CC1C(=C1C(=O)OC(=O)C1c1cc(C)n(-c2ccccc2)c1C)C1CC1 (stereo not given)
Result block: 145 °C

Query block: Look up and state reported melting point for Cc1cc(-c2c(-c3ccc(S(N)(=O)=O)cc3)cnn(-c3cccc(Cl)c3)c2=O)ccc1F
Result block: 187 to 188 °C

Query block: Look up and state reported melting point for FC(F)(F)c1cccc(Nc2nc(NCc3ccco3)nc(-c3ccccc3)n2)c1
Result block: 133 to 134 °C

Query block: Look up and state reported melting point for CCCn1c(=O)c2[nH]c(C3CCCC3)nc2n(CCc2ccc(NC(=O)CC)cc2)c1=O
Result block: > 270 °C

Query block: Look up and state reported melting point for CC(=O)OC1CC2=CCC3C4CCC(C(C)CI)C4(C)CCC3C2(C)C(OC(C)=O)C1 (stereo not given)
Result block: 135 to 136 °C

Query block: Look up and state reported melting point for CCNC(=S)NC1=Nc2ccc(OC(F)(F)F)cc2SC1
Result block: 199 to 201 °C

Query block: Look up and state reported melting point for Cn1cc(C2=C(c3cn(CCCCl)c4ccccc34)C(=O)NC2=O)c2ccccc21
Result block: 254 to 256 °C

Query block: Look up and state reported melting point for COCOc1ccc(C=O)cc1OC
Result block: 39 to 40 °C

Query block: Look up and state reported melting point for COC(=O)c1c(C)nc(C)c(C(=O)OC)c1-c1ccccc1F
Result block: 94 to 96 °C

Query block: Look up and state reported melting point for CC(C)(CC(N)=O)C(Br)(Br)Br
Result block: 109 to 111 °C
